Where do these numbers come from? They come from paper PMC8875555.

Reported values: Ki for CA II (Homo sapiens, UniProt P00918), one per item.
measurement_kind: Ki

>>> df
                                        mol    result
0  Cc1ccc(Nc2nccc(N(C)c3ccc4c(C)n(C)nc4c3)n2)cc1S(N)(=O)=O    242 nM
1  Cn1cc(/C=C2\C(=O)Nc3ccc(S(N)(=O)=O)cc32)c2ccccc21  16000 nM
2  Nc1nc(Nc2ccc(S(N)(=O)=O)cc2)nn1C(=S)Nc1c(F)cccc1F    149 nM
3  Nc1nc(Nc2ccc(S(N)(=O)=O)cc2)nn1C(=O)c1c(F)cccc1F    123 nM

----------
Molecular target: CA XII (Homo sapiens, UniProt O43570)
Sequence (O43570 25-354): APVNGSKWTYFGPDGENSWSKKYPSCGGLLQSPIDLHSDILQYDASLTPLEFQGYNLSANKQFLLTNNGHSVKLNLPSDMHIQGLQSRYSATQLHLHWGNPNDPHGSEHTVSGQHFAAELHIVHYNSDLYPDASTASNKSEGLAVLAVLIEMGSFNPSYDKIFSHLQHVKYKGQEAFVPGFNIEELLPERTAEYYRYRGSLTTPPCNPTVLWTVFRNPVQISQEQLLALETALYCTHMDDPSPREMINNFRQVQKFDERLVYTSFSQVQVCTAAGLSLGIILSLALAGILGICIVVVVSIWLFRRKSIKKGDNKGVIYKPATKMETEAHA
Exam item: assign YES to entries whose Ki is below 1000 nM and NO to entries at or above 1000 nM. Note that a value of exactly 1000 nM receives NO.

                                        mol                           assay_system  category_label
0  Cc1ccc(Nc2nccc(N(C)c3ccc4c(C)n(C)nc4c3)n2)cc1S(N)(=O)=O  CA XII (Homo sapiens, UniProt O43570)             YES
1  Nc1nc(Nc2ccc(S(N)(=O)=O)cc2)nn1C(=S)Nc1c(F)cccc1F  CA XII (Homo sapiens, UniProt O43570)             YES
2  Cn1cc(/C=C2\C(=O)Nc3ccc(S(N)(=O)=O)cc32)c2ccccc21  CA XII (Homo sapiens, UniProt O43570)              NO
3  Nc1nc(Nc2ccc(S(N)(=O)=O)cc2)nn1C(=O)c1c(F)cccc1F  CA XII (Homo sapiens, UniProt O43570)              NO

----------
pKi: −log10 of the molar value.
Reported values: pKi for CA I (Homo sapiens, UniProt P00915), one per item.
measurement_kind: pKi

>>> print(df.to_string())
                                        mol  measured_number
0  Cc1ccc(Nc2nccc(N(C)c3ccc4c(C)n(C)nc4c3)n2)cc1S(N)(=O)=O             7.17
1  Cn1cc(/C=C2\C(=O)Nc3ccc(S(N)(=O)=O)cc32)c2ccccc21             4.22
2  Nc1nc(Nc2ccc(S(N)(=O)=O)cc2)nn1C(=O)c1c(F)cccc1F             6.68
3  Nc1nc(Nc2ccc(S(N)(=O)=O)cc2)nn1C(=S)Nc1c(F)cccc1F             6.59

----------
Molecular target: UniProtKB P00918
Assay: Differential scanning fluorimetry (DSF)
Format: binding
Settings: shift from apo CA II, 200 µM inhibitor
# Lookup of reported CA II ΔTm keyed by entry
measurement_kind: CA II ΔTm (degrees)

In [3]: df
Out[3]:
                                        mol  unit_text  measured_number
0  CN1C(=O)c2sccc2N(C)c2nc(Nc3ccc(S(N)(=O)=O)cc3)ncc21    degrees              7.3
1  Nc1nc(Nc2ccc(S(N)(=O)=O)cc2)nn1C(=O)c1c(F)cccc1F    degrees              4.4
2  Cn1cc(/C=C2\C(=O)Nc3ccc(S(N)(=O)=O)cc32)c2ccccc21    degrees              0.2
3  Nc1nc(Nc2ccc(S(N)(=O)=O)cc2)nn1C(=S)Nc1c(F)cccc1F    degrees              3.2
